- EXPERIMENTAL_TARGET: HSA (Homo sapiens)
- Construct: purchased Sigma Aldrich A1887
- EXPERIMENT_SUMMARY: Displacement of NBD derivatives on HSA by natural fatty acids C6 to C16 (fluorescence)
- Assay type: binding
- Set-up: key: + stands for displacement; − for no displacement
- EXPERIMENTAL_CONTEXT: NBD-HSA mixture 25 μM, 1:1; competitor natural fatty acid
MEASUREMENT_KIND: displacement of NBD C10 (16) bound to HSA

{"COMPOUND": "CCCCCCCCCCCCCC(=O)O [FA C14, myristic acid]", "RECORDED_RESULT": "+"}
{"COMPOUND": "CCCCCCCCCCCC(=O)O [FA C12, lauric acid]", "RECORDED_RESULT": "+"}
{"COMPOUND": "CCCCCC(=O)O [FA C6, caproic acid]", "RECORDED_RESULT": "−"}

----------
- EXPERIMENT_SUMMARY: log D7.4 determination by RP-HPLC, similar to the water/octanol partition coefficient method
- Assay type: physicochemical
- EXPERIMENTAL_CONTEXT: pH 7.4, RP-HPLC C18, range −1 to +6
MEASUREMENT_KIND: chromatographic logD
Enter the number alone.

Solved cases (5 shown):
{"SMILES_STRUCTURE": "O=C(O)CCCCCCCCCCCNc1ccc([N+](=O)[O-])c2nonc12", "chromatographic logD": 2.84}
{"SMILES_STRUCTURE": "O=C(O)CCCCCNc1ccc([N+](=O)[O-])c2nonc12", "chromatographic logD": 0.53}
{"SMILES_STRUCTURE": "CN(C)c1cccc2c(S(=O)(=O)NCC(=O)O)cccc12", "chromatographic logD": 1.02}
{"SMILES_STRUCTURE": "O=C(O)CCCCCCCCCNc1ccc([N+](=O)[O-])c2nonc12", "chromatographic logD": 2.03}
{"SMILES_STRUCTURE": "CN(C)c1cccc2c(S(=O)(=O)NCCCCCCCC(=O)O)cccc12", "chromatographic logD": 2.1}

Let us examine a further case.
For the molecule CNS(=O)(=O)c1cccc2c(N(C)C)cccc12 , what chromatographic logD is on record?
2.76

----------
- EXPERIMENTAL_TARGET: HSA (Homo sapiens, UniProt P02768)
- Construct: purchased Sigma Aldrich A1887
- Sequence (P02768 25-609): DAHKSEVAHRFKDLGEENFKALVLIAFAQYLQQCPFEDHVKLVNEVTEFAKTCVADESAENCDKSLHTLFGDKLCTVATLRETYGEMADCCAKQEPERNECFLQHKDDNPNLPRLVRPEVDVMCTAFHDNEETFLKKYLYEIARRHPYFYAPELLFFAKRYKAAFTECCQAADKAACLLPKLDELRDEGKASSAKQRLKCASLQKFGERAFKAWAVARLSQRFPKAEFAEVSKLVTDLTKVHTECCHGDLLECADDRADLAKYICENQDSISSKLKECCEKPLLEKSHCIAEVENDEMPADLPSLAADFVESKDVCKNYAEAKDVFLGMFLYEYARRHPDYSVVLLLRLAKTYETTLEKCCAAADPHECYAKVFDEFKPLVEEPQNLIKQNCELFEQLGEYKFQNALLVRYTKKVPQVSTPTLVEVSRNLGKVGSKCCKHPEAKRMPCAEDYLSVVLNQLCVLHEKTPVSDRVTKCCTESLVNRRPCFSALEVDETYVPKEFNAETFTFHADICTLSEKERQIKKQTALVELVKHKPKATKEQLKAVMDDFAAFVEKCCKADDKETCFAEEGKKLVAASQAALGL
- EXPERIMENT_SUMMARY: Displacement of NBD derivatives on HSA by natural fatty acids C6 to C16 (fluorescence)
- Format: binding
- EXPERIMENTAL_CONTEXT: NBD-HSA mixture 25 μM, 1:1; competitor natural fatty acid
MEASUREMENT_KIND: displacement of NBD C8 (15) from HSA

{"SMILES_STRUCTURE": "CCCCCCCCCCCCCC(=O)O", "RECORDED_RESULT": "displaced"}
{"SMILES_STRUCTURE": "CCCCCCCCCC(=O)O", "RECORDED_RESULT": "displaced"}
{"SMILES_STRUCTURE": "CCCCCCCCCCCC(=O)O", "RECORDED_RESULT": "displaced"}

----------
- EXPERIMENT_SUMMARY: log D7.4 determination by RP-HPLC, similar to the water/octanol partition coefficient method
- Format: physicochemical
- EXPERIMENTAL_CONTEXT: pH 7.4, RP-HPLC C18, range −1 to +6
# chromatographic logD per entry
Enter the number alone.

{"SMILES_STRUCTURE": "CN(C)c1cccc2c(S(=O)(=O)NCCCCCCCCCCCC(=O)O)cccc12", "MEASUREMENT_KIND": "chromatographic logD", "RECORDED_RESULT": 3.49}
{"SMILES_STRUCTURE": "O=C(O)CCCCCCCNc1ccc([N+](=O)[O-])c2nonc12", "MEASUREMENT_KIND": "chromatographic logD", "RECORDED_RESULT": 1.29}

For the compound CN(C)c1cccc2c(S(=O)(=O)NCCCCCCCCCC(=O)O)cccc12 , what chromatographic logD is on record?
2.74

Same lookup for CN(C)c1cccc2c(S(=O)(=O)NCCCC(=O)O)cccc12 , please.
1.21

Same lookup for CN(C)c1cccc2c(S(=O)(=O)NCCCCCC(=O)O)cccc12 , please.
1.56
